Measurement notes: Intrinsic clearance in human liver microsome assessed as per mg of protein
Type: ADME
Condition set: liver microsomes
Measure: microsomal CLint (µL/min/mg)

As a guide, the following entries are already answered.
O=C(COCc1ccncc1)N1CCN(c2ccc(F)cc2F)CC1	22
O=C(COCc1nccs1)N1CCN(c2ccc(Cl)cc2Cl)CC1	80

I = O=C(COCc1ccccc1)N1CCN(c2ccc(F)cc2)CC1
II = O=C(COCc1ccncc1)N1CCN(c2ccc(Cl)cc2F)CC1
III = O=C(COCc1ccncc1)N1CCN(c2ccc(Cl)cc2)CC1
IV = O=C(COCc1cncs1)N1CCN(c2ccc(Cl)cc2Cl)CC1
Problem: Put the items in order so that reported microsomal CLint rises from first to last. Response field: labels, in requested order.
Solution: III, II, IV, I
(III: 17 µL/min/mg, II: 38 µL/min/mg, IV: 73 µL/min/mg, I: 110 µL/min/mg)

---

Measurement notes: Intrinsic clearance in human liver microsome assessed as per mg of protein
Assay type: ADME
Condition set: liver microsomes
Measure: microsomal CLint (µL/min/mg)

O=C(COCc1ncccn1)N1CCN(c2ccc(Cl)cc2Cl)CC1	16
O=C(COCc1cscn1)N1CCN(c2ccc(Cl)cc2Cl)CC1	62
O=C(COCc1ccncc1)N1CCN(c2cc(Cl)ccn2)CC1	4
O=C(COCc1ccccc1)N1CCN(c2cc(Cl)ccn2)CC1	130
O=C(COCc1ccncc1)N1CCC(c2ccc(Cl)cc2)CC1	41
O=C(COCc1ccccc1)N1CCN(c2ccc(Cl)cc2Cl)CC1	450

1 = O=C(COCc1ccncc1)N1CCC(F)(c2ccc(Cl)cc2)CC1
2 = O=C(COCc1ccccc1)N1CCN(c2ccc(F)cc2F)CC1
3 = O=C(COCc1ccncc1)N1CCC(c2ccc(Cl)cc2Cl)CC1
4 = O=C(COCc1cnccn1)N1CCN(c2ccc(Cl)cc2Cl)CC1
5 = O=C(COCc1ccccc1)N1CCN(c2ccc(Cl)cc2)CC1
Problem: Put the items in order so that reported microsomal CLint rises from first to last. Response field: labels, in requested order.
Solution: 4, 1, 3, 5, 2

---

Subject of test: UniProtKB P41594
Measurement notes: Positive allosteric modulation of human mGluR5 expressed in HEK293 cells assessed as Ca2+ influx by FLIPR assay
pEC50: −log10 of the molar value.
Measure: pEC50

As a guide, the following entries are already answered.
O=C(COCc1cccnc1)N1CCN(c2ccc(Cl)cc2Cl)CC1	5.96
O=C(COCc1cnccn1)N1CCN(c2ccc(Cl)cc2Cl)CC1	5.28
O=C(COCc1ccccc1)N1CCN(c2ccc(F)cc2F)CC1	6.52

I = O=C(COCc1cccs1)N1CCN(c2ccc(Cl)cc2Cl)CC1
II = O=C(COCc1ncccn1)N1CCN(c2ccc(Cl)cc2Cl)CC1
III = O=C(COCc1ccccc1)N1CCN(c2ccccc2Cl)CC1
IV = O=C(COCc1ccncc1)N1CCN(c2ccc(Cl)cc2Cl)CC1
Problem: Put the items in order so that reported pEC50 rises from first to last. Response field: labels, in requested order.
Solution: II, III, I, IV

---

Measurement notes: Volume of distribution in dog
Assay type: ADME, organism-based, Canis lupus familiaris
Condition set: in vivo
Measure: Vd (L/kg)
Report the value in L/kg with no unit label.

// Vd value for `O=C(COCc1ccncc1)N1CCN(c2ccc(F)cc2Cl)CC1` : 3.2

---

Subject of test: Metabotropic glutamate receptor 5 (Homo sapiens, UniProt P41594)
Sequence (P41594 whole entry): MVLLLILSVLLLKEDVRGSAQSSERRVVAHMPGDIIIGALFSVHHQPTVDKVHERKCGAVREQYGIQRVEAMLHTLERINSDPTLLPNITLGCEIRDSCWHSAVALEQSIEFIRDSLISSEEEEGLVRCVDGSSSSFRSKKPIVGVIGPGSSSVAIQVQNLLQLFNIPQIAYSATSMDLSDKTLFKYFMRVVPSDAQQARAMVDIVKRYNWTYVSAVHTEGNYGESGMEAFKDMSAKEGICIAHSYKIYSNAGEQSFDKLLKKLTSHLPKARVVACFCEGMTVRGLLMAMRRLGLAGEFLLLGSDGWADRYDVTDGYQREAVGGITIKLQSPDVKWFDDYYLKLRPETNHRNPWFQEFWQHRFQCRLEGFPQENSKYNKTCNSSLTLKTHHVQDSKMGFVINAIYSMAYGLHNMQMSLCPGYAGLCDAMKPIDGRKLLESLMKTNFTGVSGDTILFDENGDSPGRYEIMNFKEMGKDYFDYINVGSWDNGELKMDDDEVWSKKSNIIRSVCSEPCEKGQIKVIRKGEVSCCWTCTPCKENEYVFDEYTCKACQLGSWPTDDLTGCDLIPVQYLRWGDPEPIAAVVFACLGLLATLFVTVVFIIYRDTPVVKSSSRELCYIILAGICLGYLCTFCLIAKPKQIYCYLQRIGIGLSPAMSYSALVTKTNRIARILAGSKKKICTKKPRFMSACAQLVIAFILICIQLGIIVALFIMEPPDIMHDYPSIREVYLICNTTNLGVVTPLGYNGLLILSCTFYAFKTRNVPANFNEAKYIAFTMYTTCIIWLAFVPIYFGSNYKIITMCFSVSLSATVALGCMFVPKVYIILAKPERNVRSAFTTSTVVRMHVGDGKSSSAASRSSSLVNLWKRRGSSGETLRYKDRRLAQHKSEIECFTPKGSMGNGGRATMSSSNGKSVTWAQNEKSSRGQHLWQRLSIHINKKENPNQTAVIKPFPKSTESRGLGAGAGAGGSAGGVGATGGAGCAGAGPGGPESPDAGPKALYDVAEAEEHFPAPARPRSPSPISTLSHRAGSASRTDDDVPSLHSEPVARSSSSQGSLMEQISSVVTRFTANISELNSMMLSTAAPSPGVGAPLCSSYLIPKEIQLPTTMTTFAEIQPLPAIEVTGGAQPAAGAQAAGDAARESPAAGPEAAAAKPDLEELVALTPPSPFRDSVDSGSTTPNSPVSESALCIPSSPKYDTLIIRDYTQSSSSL
Measurement notes: Positive allosteric modulation of human mGluR5 expressed in HEK293 cells assessed as Ca2+ influx by FLIPR assay
pEC50: −log10 of the molar value.
Measure: pEC50

As a guide, the following entries are already answered.
O=C(COCc1ccncc1)N1CCN(c2ccc(F)cc2F)CC1	5.34
O=C(COCc1ccccc1)N1CCN(c2cc(Cl)ccn2)CC1	6.24
O=C(COCc1ccncc1)N1CCN(c2cc(Cl)ccn2)CC1	5.38
O=C(COCc1ccncc1)N1CCN(c2ccc(F)cc2Cl)CC1	6.26

I = O=C(COCc1cscn1)N1CCN(c2ccc(Cl)cc2Cl)CC1
II = O=C(CNCc1ccncc1)N1CCN(c2ccc(Cl)cc2Cl)CC1
III = O=C(COCc1ccncc1)N1CCC(F)(c2ccc(Cl)cc2)CC1
Problem: Kindly order the items shown according to pEC50, from the highest value down. Response field: labels, in requested order.
Solution: I, III, II

1 = O=C(COCc1ccccc1)N1CCN(c2ccc(Cl)cc2)CC1
2 = O=C(COCc1ccncc1)N1CCC(F)(c2ccc(F)cc2Cl)CC1
Problem: Of 1 and 2 , which carries the smaller reported pEC50 figure? Answer by quoting the chosen item's label.
Solution: 2
(2: 5.18, 1: 6.46)

P = O=C(COCc1ccccn1)N1CCN(c2ccc(Cl)cc2Cl)CC1
Q = CC1(c2ccc(Cl)cc2)CCN(C(=O)COCc2ccncc2)CC1
Problem: Which has the higher pEC50, P or Q ? Answer by quoting the chosen item's label.
Solution: P

---

Subject of test: Metabotropic glutamate receptor 5 (Homo sapiens)
Measurement notes: Positive allosteric modulation of human mGluR5 expressed in HEK293 cells assessed as Ca2+ influx by FLIPR assay
Measure: EC50 (nM)

As a guide, the following entries are already answered.
O=C(COCc1cncs1)N1CCN(c2ccc(Cl)cc2Cl)CC1	1280
O=C(COCc1ccccc1)N1CCN(c2ccc(F)cc2Cl)CC1	270
O=C(COCc1ccccc1)N1CCN(c2ccc(Cl)cc2Cl)CC1	1400
O=C(CSCc1ccccc1)N1CCN(c2ccc(Cl)cc2Cl)CC1	7100
O=C(COCc1ccncc1)N1CCN(c2ccc(Cl)cc2F)CC1	600

P = O=C(COCc1ccccc1)N1CCN(c2cccc(Cl)c2)CC1
Q = O=C(COCc1ccncc1)N1CCN(c2ccc(Cl)cc2)CC1
Problem: Which has the higher EC50, P or Q ? Answer by quoting the chosen item's label.
Solution: P

---

Subject of test: Metabotropic glutamate receptor 5 (Homo sapiens)
Measurement notes: Positive allosteric modulation of human mGluR5 expressed in HEK293 cells assessed as Ca2+ influx by FLIPR assay
Measure: EC50 (nM)

O=C(COCc1ccncn1)N1CCN(c2ccc(Cl)cc2Cl)CC1	2800
Cc1cc(Cl)ccc1N1CCN(C(=O)COCc2ccncc2)CC1	240
O=C(COCc1ccncc1)N1CCC(c2ccc(Cl)cc2)CC1	680
O=C(COCc1ccncc1)N1CCC(c2ccc(Cl)cc2Cl)CC1	390
O=C(COCc1ccccc1)N1CCN(c2ccccc2)CC1	7100
O=C(COCc1ccncc1)N1CCC(c2ccc(F)cc2Cl)CC1	370

a = O=C(CCCc1ccncc1)N1CCN(c2ccc(Cl)cc2Cl)CC1
b = O=C(COCc1ccccc1)N1CCN(c2ccc(F)cc2)CC1
Problem: Which has the higher EC50, a or b ? Answer by quoting the chosen item's label.
Solution: a

---

Subject of test: Metabotropic glutamate receptor 5 (Homo sapiens)
Measurement notes: Positive allosteric modulation of human mGluR5 expressed in HEK293 cells assessed as Ca2+ influx by FLIPR assay
Measure: EC50

O=C(CSc1ccccc1)N1CCN(c2ccc(Cl)cc2Cl)CC1	> 25 µM

// EC50 value for `N#Cc1ccc(COCC(=O)N2CCN(c3ccc(Cl)cc3Cl)CC2)s1` : 0.21 µM

// EC50 value for `Fc1ccc(C2CCN(C(=S)COCc3ccncc3)CC2)c(Cl)c1` : > 10.6 µM

// EC50 value for `C[C@@H](OCc1ccncc1)C(=O)N1CCC(c2ccc(Cl)cc2F)CC1` : > 25 µM

// EC50 value for `Clc1ccc(N2CCN(CCOCc3ccccc3)CC2)c(Cl)c1` : > 25 µM

// EC50 value for `CN(CC(=O)N1CCN(c2ccc(Cl)cc2Cl)CC1)Cc1ccncc1` : > 25 µM

// EC50 value for `O=C(COCc1ccccc1)N1CCN(c2ccncc2)CC1` : > 25 µM

// EC50 value for `O=C(COCc1nccs1)N1CCN(c2ccc(Cl)cc2Cl)CC1` : > 10.3 µM
